EXPERIMENTAL_DETAILS: CBD dosage optimisation and cell toxicity assay (WST-1)
Type: cell-based
CONDITION_SUMMARY: human; HDF cells, 24 hours incubation, WST-1 reagent, CBD up to 25 μg/mL; read-out: CBD concentrations toxic to human fibroblast cells
REPORTED_ENDPOINT: MCC at 24 h

For C=C(C)[C@@H]1CCC(C)=C[C@H]1c1c(O)cc(CCCCC)cc1O the molecule record lists MCC at 24 h as > 4 µg/mL

The measurements presented in this section are drawn from patent US20260284150A1.
